tested on: C. albicans ACTCC 14503; test: antifungal microbroth dilution assay, C. albicans ACTCC 14503; type: cell-based, Candida albicans; details: Table 7; microbroth dilution
ASSAY_ENDPOINT: C. albicans ACTCC 14503 MIC

Examples with their reported C. albicans ACTCC 14503 MIC follow.
C=C1C[C@@H]2C[C@@H]3CCO[C@@H](O3)c3coc(n3)/C=C/C[C@H]3O[C@@H](/C(C)=C/I)[C@H](C)[C@@H](OC(=O)/C=C/C[C@@H](C1)O2)[C@H]3C [Compound (E, E)-15] ... >64 mg/L
C=C1C[C@@H]2C[C@@H]3CCO[C@@H](O3)c3coc(n3)/C=C/C[C@H]3O[C@@H](/C(C)=C/C#N)[C@H](C)[C@@H](OC(=O)/C=C/C[C@@H](C1)O2)[C@H]3C [Compound (E, E)-5] ... 4 mg/L
C=C1C[C@@H]2C[C@@H]3CCO[C@@H](O3)c3coc(n3)/C=C/C[C@H]3O[C@@H](/C(C)=C/C#N)[C@H](C)[C@@H](OC(=O)/C=C\C[C@@H](C1)O2)[C@H]3C [Compound (Z, E)-5] ... 16 mg/L

Then there is this compound:
Problem: I'd like to know its C. albicans ACTCC 14503 MIC. The compound in question is C=C1C[C@@H]2C[C@@H]3CCO[C@@H](O3)c3coc(n3)/C=C/C[C@H]3O[C@@H](/C(C)=C/I)[C@H](C)[C@@H](OC(=O)/C=C\C[C@@H](C1)O2)[C@H]3C [Compound (Z, E)-15]
Solution: >64 mg/L

* * *

Catalogue of compounds with associated HCT-116 Colon IC50
system: HCT-116 Colon; assay: tumor cell growth inhibitory activity, HCT-116 colon; format: cell-based, human; conditions: Table 6; HCT-116 colon tumor cells
Numeric only. Scale: µg/mL

C=C1C[C@@H]2C[C@@H]3CCO[C@@H](O3)c3cccc(c3)/C=C/C[C@H]3O[C@@H](/C(C)=C/C#N)[C@H](C)[C@@H](OC(=O)/C=C\C[C@@H](C1)O2)[C@H]3C [Compound (Z, E)-6] ... 0.207

Then there is this compound:
Problem: I'd like to know its HCT-116 Colon IC50. The compound in question is C=C1C[C@@H]2C[C@@H]3C[C@@H](O)C[C@@H](O3)c3coc(n3)/C=C/C[C@H]3O[C@@H](/C(C)=C/c4coc(C[C@]5(O)C[C@H](OC)C[C@H]([C@H](O)/C=C(C)/C=C/[C@@H](C/C=C/Br)OC)O5)n4)[C@H](C)[C@@H](OC(=O)/C=C\C[C@@H](C1)O2)[C@H]3C [Phorboxazole A]
Solution: 0.00071

* * *

Catalogue of molecules with associated HCT-116 Colon IC50
test system: HCT-116 Colon; test: tumor cell growth inhibitory activity, HCT-116 colon; type: cell-based, human; settings: Table 5; HCT-116 colon tumor cells

C=C1C[C@@H]2C[C@@H]3CCO[C@@H](O3)c3coc(n3)/C=C/C[C@H]3O[C@@H](/C(C)=C/I)[C@H](C)[C@@H](OC(=O)/C=C\C[C@@H](C1)O2)[C@H]3C [Compound (Z, E)-15] ... >6.25 µg/mL
C=C1C[C@@H]2C[C@@H]3CCO[C@@H](O3)c3coc(n3)/C=C/C[C@H]3O[C@@H](/C(C)=C/I)[C@H](C)[C@@H](OC(=O)/C=C/C[C@@H](C1)O2)[C@H]3C [Compound (E, E)-15] ... >6.25 µg/mL
C=C1C[C@@H]2C[C@@H]3CCO[C@@H](O3)c3coc(n3)/C=C/C[C@H]3O[C@@H](/C(C)=C/C#N)[C@H](C)[C@@H](OC(=O)/C=C\C[C@@H](C1)O2)[C@H]3C [Compound (Z, E)-5] ... >6.2 µg/mL

Problem: I'd like to know its HCT-116 Colon IC50. The molecule in question is C=C1C[C@@H]2C[C@@H]3CCO[C@@H](O3)c3coc(n3)/C=C/C[C@H]3O[C@@H](/C(C)=C/C#N)[C@H](C)[C@@H](OC(=O)/C=C/C[C@@H](C1)O2)[C@H]3C [Compound (E, E)-5]
Solution: 1.54 µg/mL
